Target Under Test: JAK1 (Homo sapiens (Human))
Sequence (P23458 whole entry): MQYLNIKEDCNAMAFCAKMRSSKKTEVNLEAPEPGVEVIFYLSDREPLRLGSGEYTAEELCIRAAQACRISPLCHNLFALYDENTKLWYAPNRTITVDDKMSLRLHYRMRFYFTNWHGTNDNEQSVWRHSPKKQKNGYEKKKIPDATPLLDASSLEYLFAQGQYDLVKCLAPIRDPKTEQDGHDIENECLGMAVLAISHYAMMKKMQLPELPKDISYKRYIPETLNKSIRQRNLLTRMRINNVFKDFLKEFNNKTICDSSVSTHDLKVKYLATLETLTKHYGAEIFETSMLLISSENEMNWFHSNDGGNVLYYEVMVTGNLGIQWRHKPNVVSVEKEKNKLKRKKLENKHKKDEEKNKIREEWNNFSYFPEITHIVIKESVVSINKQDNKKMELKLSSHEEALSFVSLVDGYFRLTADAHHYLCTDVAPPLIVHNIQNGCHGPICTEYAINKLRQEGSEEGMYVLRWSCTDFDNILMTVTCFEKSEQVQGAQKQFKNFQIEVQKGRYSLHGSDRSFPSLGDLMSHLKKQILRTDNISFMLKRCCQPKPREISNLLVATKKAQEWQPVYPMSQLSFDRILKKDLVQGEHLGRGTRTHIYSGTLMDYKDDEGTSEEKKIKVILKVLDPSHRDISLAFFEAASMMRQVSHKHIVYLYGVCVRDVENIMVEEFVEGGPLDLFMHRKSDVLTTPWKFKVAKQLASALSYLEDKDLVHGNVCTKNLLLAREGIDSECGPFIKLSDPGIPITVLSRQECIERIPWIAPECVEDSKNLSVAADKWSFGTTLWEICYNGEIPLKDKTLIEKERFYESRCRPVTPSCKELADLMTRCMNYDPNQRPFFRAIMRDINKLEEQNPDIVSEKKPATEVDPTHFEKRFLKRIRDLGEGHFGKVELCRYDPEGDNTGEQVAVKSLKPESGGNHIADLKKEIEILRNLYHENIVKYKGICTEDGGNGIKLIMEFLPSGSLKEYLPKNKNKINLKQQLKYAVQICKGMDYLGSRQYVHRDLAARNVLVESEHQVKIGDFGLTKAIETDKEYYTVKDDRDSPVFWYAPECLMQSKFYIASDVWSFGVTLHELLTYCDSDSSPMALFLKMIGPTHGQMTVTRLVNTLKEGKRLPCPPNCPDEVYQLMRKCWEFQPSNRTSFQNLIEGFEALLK
Experiment Summary: JAK1 LANCE Ultra kinase assay
Format: biochemical
Measurement Context: 38 uM ATP
// reported IC50 per item
State just the number; it will be interpreted in nM.

Sample records with IC50:
>  <Molecule>
CCOc1nc(NC(=O)N2C[C@H]3C[C@H](N(C)c4c(C#N)cnc5[nH]ccc45)C[C@H]3C2)no1

>  <Recorded Measurement>
0.86

$$$$
>  <Molecule>
CC[C@@H]1CN(C(=O)CCC#N)C[C@@H]1Nc1c(C#N)cnc2[nH]ccc12 (relative stereo)

>  <Recorded Measurement>
9.3

$$$$

Task item: Write down the reported IC50 of CC[C@@H]1CN(C(=O)NCC(C)(C)C)C[C@@H]1Nc1c(C#N)cnc2[nH]ccc12 (relative stereo) , test system: JAK1 (Homo sapiens (Human)).
Reply: 1.41

Task item: Could you do the same for N#Cc1cnc2[nH]ccc2c1N1CC2CN(C(=O)NCC(F)(F)F)CC21 (stereo not shown) , please?
Reply: 0.35

Task item: Follow-up entry: N#Cc1cnc2[nH]ccc2c1N[C@H]1C[C@@H]2CN(C(=O)Nc3nc(C4CC4)ns3)C[C@@H]2C1
Reply: 5.43

Task item: Another molecule to look at: CN(c1c(C#N)cnc2[nH]ccc12)[C@H]1CC[C@H](CS(=O)(=O)N2CCC(C)(O)C2)CC1 (stereo partly shown)
Reply: 5.8

Task item: Can you handle C[C@@H]1CN(S(=O)(=O)C[C@H]2CC[C@H](N(C)c3c(C#N)cnc4[nH]ccc34)CC2)C[C@H]1CO (relative stereo) next?
Reply: 8.9
